Just for reference, patent US20070208166A1 is where these values come from.

Molecular target: TAO (Homo sapiens, UniProt Q9UL54)
Sequence (Q9UL54 1-1235): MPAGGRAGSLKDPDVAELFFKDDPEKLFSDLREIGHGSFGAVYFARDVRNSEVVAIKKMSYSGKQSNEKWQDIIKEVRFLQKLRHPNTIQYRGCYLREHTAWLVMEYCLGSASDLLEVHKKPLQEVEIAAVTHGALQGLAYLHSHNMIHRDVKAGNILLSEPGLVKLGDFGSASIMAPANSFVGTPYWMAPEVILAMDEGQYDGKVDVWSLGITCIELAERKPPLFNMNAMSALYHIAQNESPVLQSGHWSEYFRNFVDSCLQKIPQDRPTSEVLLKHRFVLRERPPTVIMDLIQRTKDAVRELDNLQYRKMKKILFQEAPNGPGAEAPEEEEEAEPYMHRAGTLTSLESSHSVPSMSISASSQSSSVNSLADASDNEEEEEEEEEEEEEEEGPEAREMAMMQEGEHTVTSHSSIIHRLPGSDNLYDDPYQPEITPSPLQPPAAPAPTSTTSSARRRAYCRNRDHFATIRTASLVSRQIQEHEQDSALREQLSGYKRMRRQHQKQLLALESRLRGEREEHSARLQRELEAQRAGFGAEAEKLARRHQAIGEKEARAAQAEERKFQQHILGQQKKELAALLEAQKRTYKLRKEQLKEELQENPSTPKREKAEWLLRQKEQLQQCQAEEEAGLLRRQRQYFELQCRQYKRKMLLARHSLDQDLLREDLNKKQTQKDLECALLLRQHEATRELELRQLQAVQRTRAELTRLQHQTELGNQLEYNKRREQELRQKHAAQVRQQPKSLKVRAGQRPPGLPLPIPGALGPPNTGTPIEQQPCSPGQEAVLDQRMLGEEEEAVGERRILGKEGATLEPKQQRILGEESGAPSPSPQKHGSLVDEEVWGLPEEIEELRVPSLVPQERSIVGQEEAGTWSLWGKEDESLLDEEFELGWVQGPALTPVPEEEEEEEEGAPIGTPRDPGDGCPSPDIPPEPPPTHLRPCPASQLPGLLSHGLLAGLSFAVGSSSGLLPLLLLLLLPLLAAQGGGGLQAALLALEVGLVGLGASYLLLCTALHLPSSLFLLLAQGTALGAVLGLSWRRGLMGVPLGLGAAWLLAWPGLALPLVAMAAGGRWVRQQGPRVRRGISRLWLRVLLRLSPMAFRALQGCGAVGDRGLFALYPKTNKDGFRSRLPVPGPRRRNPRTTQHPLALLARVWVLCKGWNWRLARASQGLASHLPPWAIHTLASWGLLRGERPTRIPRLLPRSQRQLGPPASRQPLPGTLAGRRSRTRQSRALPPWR
pIC50: −log10 of the molar value.
Measured pIC50, listed per entry.

Worked set:
1) CCc1ccc(-c2ccc(C(=O)NCC(=O)NCc3ccccc3C(F)(F)F)cc2)cc1 : < 5.30
2) CCCCCCOc1ccc(C(=O)NCC(=O)NC2CCCc3ccccc32)cc1 (stereo not shown) : 6.30 to 7.30
3) CCc1ccc(-c2ccc(C(=O)NCC(=O)Nc3cccc4ccccc34)cc2)cc1 : 6.30 to 7.30
4) CCc1ccc(-c2ccc(C(=O)NCC(=O)N3CCN(c4ccccc4)CC3)cc2)cc1 : < 5.30
5) Cc1cc(C(=O)NCC(=O)NC2CCCc3ccccc32)cc(C)c1OCc1ccccc1 (stereo not shown) : 5.30 to 6.30

Proceeding to the next compound to report its pIC50.
Task item: Give me measured pIC50, please, for this compound: CCCCCOc1ccc(C(=O)NC(C)C(=O)NC2CCc3ccccc3C2)cc1 (stereo not shown)
Reply: 5.30 to 6.30
